- TEST METHOD NOTES: microbe, parasite or virus in culture
- TEST SETTINGS: Mycobacterium tuberculosis, 96 h, read-out: pIC50 (converted)
Would you kindly list IC50 for each of these compounds?

Below, each entry is followed by its recorded IC50 result.
> print(dat)
                                   compound   measured
1           CC(=O)Nc1ccc(N2C(=O)C=CC2=O)cc1   > 501 µM
2            COC(=O)CSCC(=O)Nc1cc(F)cc(F)c1   > 501 µM
3                               OCCNC1CCCC1   > 501 µM
4  CCC1Oc2c(Cl)cccc2NC1=O (stereo not drawn)   > 501 µM
5  CCC(C#N)NC(=O)c1cnc(OC(C)C)c(Cl)c1 (stereo not drawn)     291 µM
6         COC(=O)COn1c(SC(C)C)nc2ccccc2c1=O  > 50.1 µM

Consider the following items and state reported IC50 for each.
1. Cc1cc(C(=O)NCC(O)c2ccccc2Cl)no1 (stereo not drawn)
2. COc1cccc(Nc2ccc(N)nc2)c1
3. COCC(=O)NCc1noc(-c2cccc(C)c2)n1
4. Cc1cc2c(cc1S(=O)(=O)N1CCCC(N)C1)OCO2 (stereo not drawn)
5. Cn1nc(CN2CCCN(C3CCCC3)CC2)c2c(Cl)cccc21
6. COc1ccnc(NC(=O)NCc2cccs2)c1
7. CCc1cnc(N)nc1NC(C)c1ccc(C)c(C)c1 (stereo not drawn)

Result:
> 501 µM
241 µM
160 µM
> 501 µM
39.8 µM
119 µM
44.1 µM

Consider the following items and state reported IC50 for each.
1. COc1cc2c(cc1CNC(Cc1cccs1)c1nccs1)OCO2 (stereo not drawn)
2. COCCNc1ccc(OC)c(OC)c1
3. Cc1ccc(S(=O)(=O)NC(CN)C2CC2)c(F)c1 (stereo not drawn)
4. CN1CCN(C(=O)c2cc3sccc3n2Cc2ccc(Cl)cc2)CC1
5. CC1CCCN(S(=O)(=O)N(C)Cc2ccco2)C1 (stereo not drawn)

Result:
1: 17.3 µM; 2: > 501 µM; 3: > 501 µM; 4: > 50.1 µM; 5: > 501 µM

Consider the following items and state reported IC50 for each.
1. COC1(CNC(=O)c2cccc(C#N)c2)CCSC1 (stereo not drawn)
2. COC(=O)[C@H](C)NC(=O)C1(c2ccccc2F)CC1
3. CCOC(=O)N1CCN(C(=O)Cc2cccs2)CC1
4. O=C(c1ccc(Br)o1)N1CCN(Cc2ccc(OC(F)(F)F)cc2)CC1

Result:
1: > 50.1 µM; 2: > 501 µM; 3: > 501 µM; 4: 40.6 µM
